TARGET OF ASSAY: human CYP2E1, CYP2E1 (gene 1571) (UniProt P05181)
Sequence (P05181 whole entry, looked up): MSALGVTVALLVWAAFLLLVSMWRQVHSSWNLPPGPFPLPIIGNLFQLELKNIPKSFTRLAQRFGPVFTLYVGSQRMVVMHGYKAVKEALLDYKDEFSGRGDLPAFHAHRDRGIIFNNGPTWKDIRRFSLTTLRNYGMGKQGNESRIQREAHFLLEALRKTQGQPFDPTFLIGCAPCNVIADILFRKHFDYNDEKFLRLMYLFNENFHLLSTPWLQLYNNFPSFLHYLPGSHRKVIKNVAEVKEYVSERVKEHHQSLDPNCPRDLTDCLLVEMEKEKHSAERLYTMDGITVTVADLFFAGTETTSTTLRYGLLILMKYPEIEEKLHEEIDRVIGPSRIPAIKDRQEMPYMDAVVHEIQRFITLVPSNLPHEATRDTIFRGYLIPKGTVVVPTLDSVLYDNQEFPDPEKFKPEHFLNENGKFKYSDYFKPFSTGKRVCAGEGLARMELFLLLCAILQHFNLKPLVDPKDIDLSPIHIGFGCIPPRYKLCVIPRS
ASSAY PROTOCOL: NVS_ADME_hCYP2E1: NovaScreen (NVS) CYP450-related Enzyme Activity (ADME) Assay for human CYP2E1
The source made the active and inactive calls. How the source made its calls: active means hit-call score of the fitted dose curve at least 0.9, where 1 is the maximum; inactive means score below 0.9.

COMPOUND	AC50
CC(C)(C)C(O)C(Oc1ccc(Cl)cc1)n1cncn1 (stereo not drawn)	0.604 µM (active)
COc1nn(CSP(=S)(OC)OC)c(=O)s1	inactive
FC(F)C(F)(F)OCC(Cn1cncn1)c1ccc(Cl)cc1Cl (stereo not drawn)	inactive
CC(C)NC(=O)N1CC(=O)N(c2cc(Cl)cc(Cl)c2)C1=O	inactive
COP(=S)(OC)Oc1ccc([N+](=O)[O-])c(C)c1	0.319 µM (active)
N#Cc1c[nH]cc1-c1cccc2c1OC(F)(F)O2	inactive
CCC(=NOC/C=C/Cl)C1=C(O)CC(C2CCOCC2)CC1=O (stereo not drawn)	3.5 µM (active)
CC[C@H](C)[C@H]1O[C@]2(C=C[C@@H]1C)C[C@@H]1C[C@@H](C/C=C(\C)[C@@H](O[C@H]3C[C@H](OC)[C@@H](O[C@H]4C[C@H](OC)[C@@H](NC)[C@H](C)O4)[C@H](C)O3)[C@@H](C)/C=C/C=C3\CO[C@@H]4[C@H](O)C(C)=C[C@@H](C(=O)O1)[C@]34O)O2	0.551 µM (active)
